# MEASUREMENT_TARGET: mitochondrial respiratory chain complex III (CxIII, coenzyme Q-cytochrome c oxidoreductase) (Bos taurus, UniProt P00157+P13272)
# Construct: native complex in mitochondria isolated from bovine heart
# TEST_METHOD_NOTES: spectrophotometric initial rates of cytochrome c reduction with graded decylubiquinol in isolated mitochondria; reciprocal and Dixon plots
VALUE_TYPE: Ki

C[C@]12CC[C@H]3[C@@H](CCC4=CC(=O)CC[C@@H]43)[C@@H]1CC[C@@H]2O = ~300 µM
